Attribution: ChEMBL document CHEMBL1150354

Quick note: these are Ki numbers for system: UniProt:P14842
Give bare numbers, in nM.

Below are worked cases with known answers.
CC(N)Cc1c2c(c(Br)c3c1OCC3)OCCC2 (stereo not drawn) :: 3.6
NCCc1c2c(c(Br)c3c1OCC3)OCCC2 :: 11
CC(N)Cc1c2c(c(Br)c3ccoc13)OCCC2 (stereo not drawn) :: 1
CC(N)Cc1c2c(c(Br)c3c1OCCC3)OCC2 (stereo not drawn) :: 5.3
CC(N)Cc1c2c(c(Br)c3c1OCC3)OCC2 (stereo not drawn) :: 1
NCCc1c2c(c(Br)c3c1OCCC3)OCC2 :: 8.4
CC(N)Cc1c2c(c(Br)c3c1OCCC3)OCCC2 (stereo not drawn) :: 3.1

Alright, here's another molecule for you.
Problem: Request: Ki, test system UniProt:P14842, entry `NCCc1c2c(c(Br)c3c1OCCC3)OCCC2`
Result: 4.5

###

Target: 5-hydroxytryptamine receptor 2A (Rattus norvegicus) (UniProt P14842)
Sequence (P14842 whole entry): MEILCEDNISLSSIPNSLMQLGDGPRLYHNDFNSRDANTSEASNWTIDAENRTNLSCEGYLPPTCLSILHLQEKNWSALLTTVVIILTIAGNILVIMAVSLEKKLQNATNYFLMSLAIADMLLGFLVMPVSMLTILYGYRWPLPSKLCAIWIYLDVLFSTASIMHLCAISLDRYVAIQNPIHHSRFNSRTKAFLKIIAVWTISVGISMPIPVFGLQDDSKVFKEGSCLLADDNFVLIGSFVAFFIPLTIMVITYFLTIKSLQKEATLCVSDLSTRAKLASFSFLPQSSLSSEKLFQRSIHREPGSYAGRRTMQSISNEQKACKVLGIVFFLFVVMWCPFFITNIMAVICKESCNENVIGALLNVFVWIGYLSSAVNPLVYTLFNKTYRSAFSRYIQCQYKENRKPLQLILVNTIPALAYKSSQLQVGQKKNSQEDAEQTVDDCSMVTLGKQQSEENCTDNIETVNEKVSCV
Assay: Intrinsic activity at rat 5HT2A receptor expressed in mouse NIH3T3 cells assessed as stimulation of inositol phosphate accumulation relative to serotonin
Assay type: functional, cell-based
Provide the recorded Intrinsic activity for the entries that follow.
Answers are plain numbers, in %.

CC(N)Cc1c2c(c(Br)c3ccoc13)OCCC2 (centres undefined) :: 102
COc1cc(CC(C)N)c(OC)cc1Br (centres undefined) [BROLAMFETAMINE] :: 73

Please supply Intrinsic activity for each of the following items, keeping them in order.
1. NCCc1c2c(c(Br)c3c1OCCC3)OCCC2
2. NCCc1c2c(c(Br)c3c1OCCC3)OCC2
3. NCCc1c2c(c(Br)c3c1OCC3)OCCC2
4. CC(N)Cc1c2c(c(Br)c3c1OCC3)OCCC2 (centres undefined)
5. CC(N)Cc1c2c(c(Br)c3c1OCC3)OCC2 (centres undefined)
6. CC(N)Cc1c2c(c(Br)c3c1OCCC3)OCC2 (centres undefined)
7. CC(N)Cc1c2c(c(Br)c3c1OCCC3)OCCC2 (centres undefined)

Result:
1. 61
2. 64
3. 61
4. 86
5. 88
6. 74
7. 72

###

Target: 5-hydroxytryptamine receptor 2A (Rattus norvegicus)
Sequence (P14842 whole entry): as above
Test: Agonist activity at rat 5HT2A receptor expressed in mouse NIH3T3 cells assessed as stimulation of inositol phosphate accumulation
quantity_kind: pEC50
Give bare numbers, as −log10 of the molar value.

Below are worked cases with known answers.
NCCc1c2c(c(Br)c3c1OCCC3)OCCC2 :: 6.62
CC(N)Cc1c2c(c(Br)c3c1OCC3)OCCC2 (configuration not stated) :: 7.72
CC(N)Cc1c2c(c(Br)c3c1OCCC3)OCC2 (configuration not stated) :: 7.11
CC(N)Cc1c2c(c(Br)c3ccoc13)OCCC2 (configuration not stated) :: 7.89
CC(N)Cc1c2c(c(Br)c3c1OCCC3)OCCC2 (configuration not stated) :: 6.59

Please supply pEC50 for each of the following items, keeping them in order.
1. NCCc1c2c(c(Br)c3c1OCCC3)OCC2
2. NCCc1c2c(c(Br)c3c1OCC3)OCCC2

Result:
1. 6.84
2. 8.03
